// values below are reported log10 IC50
target: Tyrosinase (EC 1.14.18.1) from mushroom; experiment: Tyrosinase inhibitory assay (L-DOPA substrate, absorbance at 475 nm); details: read-out: IC50 (tyrosinase inhibitory activity); mushroom tyrosinase 15 U/mL, L-DOPA 1.5 mM, phosphate buffer pH 6.8, preincubated 30 min, n = 3
experimental-readout: log10 IC50 (log10 of the value in µM)

molecule: O=C(/C=C/C=C/c1ccc(O)cc1O)c1ccc(O)cc1O
log10 IC50: -1.48
//
molecule: O=C(O)/C=C/c1ccc(O)cc1
log10 IC50: 0.37
//
molecule: CC(=O)/C=C/c1ccc(O)c(O)c1
log10 IC50: 1.43
//
molecule: O=C(/C=C/c1ccc(O)cc1O)c1ccc(O)cc1O [Compound 8, 2,4,2′,4′-Tetrahydroxychalcone]
log10 IC50: -1.80
//
molecule: O=C(/C=C/C=C/C=C/c1ccc(O)cc1O)c1ccc(O)cc1O
log10 IC50: -0.96

Sourced from paper PMC7801053
